- Tested on: 186277-243-T-J2-PDC complex spheroids, viability
- experiment-summary: Anticancer human tumor 186277-243-T-J2-PDC patient-derived colon adenocarcinoma cell line growth inhibition [RAS]; active = viability on the fitted dose curve at most 10% of control; inactive = the rest
- particulars: second compound 1 µM; first compound 0.00316 µM
Log the outcome using a class from active, inactive

compound	assigned-class
C=CC(=O)Nc1cc(Nc2nccc(-c3cn(C)c4ccccc34)n2)c(OC)cc1N(C)CCN(C)C + C#Cc1c(F)ccc2cc(O)cc(-c3ncc4c(N5CC6CCC(C5)N6)nc(OCC56CCCN5CC(F)C6)nc4c3F)c12	inactive
O=C(c1ccc(F)c(F)c1Nc1ccc(I)cc1F)N1CC(O)([C@@H]2CCCCN2)C1 + C=CC(=O)N1CCN(c2nc(OCC3CCCN3C)nc3c(F)c(-c4nc(N)cc(C)c4C(F)(F)F)c(Cl)cc23)C(C)C1	inactive
CC(C)n1nc(-c2ccc3oc(N)nc3c2)c2c(N)ncnc21 + C#Cc1c(F)ccc2cc(O)cc(-c3ncc4c(N5CC6CCC(C5)N6)nc(OCC56CCCN5CC(F)C6)nc4c3F)c12	inactive
CCN1CCN(Cc2ccc(Nc3ncc(F)c(-c4cc(F)c5nc(C)n(C(C)C)c5c4)n3)nc2)CC1 + C=CC(=O)N1CCN(c2nc(OCC3CCCN3C)nc3c(F)c(-c4nc(N)cc(C)c4C(F)(F)F)c(Cl)cc23)C(C)C1	inactive

## Task // param item: CCN1CCN(Cc2ccc(Nc3ncc(F)c(-c4cc(F)c5nc(C)n(C(C)C)c5c4)n3)nc2)CC1 + C#Cc1c(F)ccc2cc(O)cc(-c3ncc4c(N5CC6CCC(C5)N6)nc(OCC56CCCN5CC(F)C6)nc4c3F)c12 ; yields the recorded call
## Result inactive

## Task // param item: Nc1ccn(C2OC(CO)C(O)C2(F)F)c(=O)n1 (stereo unspecified) + C#Cc1c(F)ccc2cc(O)cc(-c3ncc4c(N5CC6CCC(C5)N6)nc(OCC56CCCN5CC(F)C6)nc4c3F)c12 ; yields the recorded call
## Result active

## Task // param item: C=CC(=O)N1CCN(c2nc(OCC3CCCN3C)nc3c(F)c(-c4nc(N)cc(C)c4C(F)(F)F)c(Cl)cc23)C(C)C1 (stereo unspecified) + C#Cc1c(F)ccc2cc(O)cc(-c3ncc4c(N5CC6CCC(C5)N6)nc(OCC56CCCN5CC(F)C6)nc4c3F)c12 ; yields the recorded call
## Result inactive

## Task // param item: C=CC(=O)Nc1cc(Nc2nccc(-c3cn(C)c4ccccc34)n2)c(OC)cc1N(C)CCN(C)C + C=CC(=O)N1CCN(c2nc(OCC3CCCN3C)nc3c(F)c(-c4nc(N)cc(C)c4C(F)(F)F)c(Cl)cc23)C(C)C1 ; yields the recorded call
## Result inactive

## Task // param item: O=C(c1ccc(F)c(F)c1Nc1ccc(I)cc1F)N1CC(O)([C@@H]2CCCCN2)C1 + C#Cc1c(F)ccc2cc(O)cc(-c3ncc4c(N5CC6CCC(C5)N6)nc(OCC56CCCN5CC(F)C6)nc4c3F)c12 ; yields the recorded call
## Result inactive

## Task // param item: CC(C)n1nc(-c2ccc3oc(N)nc3c2)c2c(N)ncnc21 + C=CC(=O)N1CCN(c2nc(OCC3CCCN3C)nc3c(F)c(-c4nc(N)cc(C)c4C(F)(F)F)c(Cl)cc23)C(C)C1 ; yields the recorded call
## Result inactive

## Task // param item: Nc1ccn(C2OC(CO)C(O)C2(F)F)c(=O)n1 (stereo unspecified) + C=CC(=O)N1CCN(c2nc(OCC3CCCN3C)nc3c(F)c(-c4nc(N)cc(C)c4C(F)(F)F)c(Cl)cc23)C(C)C1 ; yields the recorded call
## Result inactive

---

- Tested on: 186277-243-T-J2-PDC complex spheroids, viability
- experiment-summary: Anticancer human tumor 186277-243-T-J2-PDC cell line growth inhibition [RAS];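 also: spheroids exposed to compounds for 7 days before viability read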
- particulars: second compound 0.01 µM; first compound 10 µM; active compounds read low
value-type: viability, T/C (%)
Output spec: scalar in %, unitless text.

molecule	measured-target	value-type	unit-of-measurement	quantitative-readout
C[C@@H](NC(=O)c1ncnc(N)c1Cl)c1ncc(C(=O)Nc2cc(C(F)(F)F)c(Cl)cn2)s1 + C=CC(=O)N1CCN(c2nc(OCC3CCCN3C)nc3c(F)c(-c4nc(N)cc(C)c4C(F)(F)F)c(Cl)cc23)C(C)C1	186277-243-T-J2-PDC complex spheroids, viability	viability, T/C	%	71.2
NC1c2ccccc2OC12CCN(c1cnc3c(N4CCCc5ncccc54)n[nH]c3n1)CC2 (stereo not drawn) + C=CC(=O)N1CCN(c2nc(OCC3CCCN3C)nc3c(F)c(-c4nc(N)cc(C)c4C(F)(F)F)c(Cl)cc23)C(C)C1	186277-243-T-J2-PDC complex spheroids, viability	viability, T/C	%	57.6

// next entry
Form: item CC(Nc1ccc2c(c1)OCCn1cc(N3C(=O)OCC3C(F)F)nc1-2)C(N)=O (stereo not drawn) + C=CC(=O)N1CCN(c2nc(OCC3CCCN3C)nc3c(F)c(-c4nc(N)cc(C)c4C(F)(F)F)c(Cl)cc23)C(C)C1 ; test system 186277-243-T-J2-PDC complex spheroids, viability; viability, T/C: 25.3

---

- Tested on: 186277-243-T-J2-PDC complex spheroids, viability
- experiment-summary: Anticancer human tumor 186277-243-T-J2-PDC cell line growth inhibition [RAS];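 also: spheroids exposed to compounds for 7 days before viability read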
- particulars: second compound 0.0949 µM; first compound 0.00316 µM; active compounds read low
value-type: viability, T/C (%)
Output spec: scalar in %, unitless text.

compound	quantitative-readout
C=CC(=O)N1CCN(c2nc(OCC3CCCN3C)nc3c(F)c(-c4nc(N)cc(C)c4C(F)(F)F)c(Cl)cc23)C(C)C1 (centres undefined) + CCn1c(-c2cccnc2C(C)OC)c2c3cc(ccc31)N1CCOC(CC(NC(=O)C(C(C)C)N(C)C(=O)C3(F)CCN(C(=O)C#CC(C)(C)N(C)C)CC3)C(=O)N3CCCC(N3)C(=O)OCC(C)(C)C2)C1	85.3
CCN1CCN(Cc2ccc(Nc3ncc(F)c(-c4cc(F)c5nc(C)n(C(C)C)c5c4)n3)nc2)CC1 + CCn1c(-c2cc(N3CCN(C)CC3)cnc2C(C)OC)c2c3cc(ccc31)-c1csc(n1)CC(NC(=O)C1CC1C)C(=O)N1CCCC(N1)C(=O)OCC(C)(C)C2	7.73
O=C(c1ccc(F)c(F)c1Nc1ccc(I)cc1F)N1CC(O)([C@@H]2CCCCN2)C1 + CCn1c(-c2cccnc2C(C)OC)c2c3cc(ccc31)N1CCOC(CC(NC(=O)C(C(C)C)N(C)C(=O)C3(F)CCN(C(=O)C#CC(C)(C)N(C)C)CC3)C(=O)N3CCCC(N3)C(=O)OCC(C)(C)C2)C1	121

viability, T/C reading for O=C(c1ccc(F)c(F)c1Nc1ccc(I)cc1F)N1CC(O)([C@@H]2CCCCN2)C1 + CCn1c(-c2cc(N3CCN(C)CC3)cnc2C(C)OC)c2c3cc(ccc31)-c1csc(n1)CC(NC(=O)C1CC1C)C(=O)N1CCCC(N1)C(=O)OCC(C)(C)C2 : 6.07

---

- System: 186277-243-T-J2-PDC complex spheroids, viability
- experiment-summary: Anticancer human tumor 186277-243-T-J2-PDC cell line growth inhibition [RAS];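 also: spheroids exposed to compounds for 7 days before viability read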
- particulars: second compound 1 µM; first compound 0.0316 µM; active compounds read low
value-type: viability, T/C (%)
Output spec: scalar in %, unitless text.

Completed entries (count: 5):
compound	measured-target	quantitative-readout
CC(=O)OC12COC1CC(O)C1(C)C(=O)C(O)C3=C(C)C(OC(=O)C(O)C(NC(=O)OC(C)(C)C)c4ccccc4)CC(O)(C(OC(=O)c4ccccc4)C21)C3(C)C (centres undefined) + C=CC(=O)N1CCN(c2nc(OCC3CCCN3C)nc3c(F)c(-c4nc(N)cc(C)c4C(F)(F)F)c(Cl)cc23)C(C)C1	186277-243-T-J2-PDC complex spheroids, viability	12
CC1(O)CCCC1n1c(=O)c(C(F)F)cc2cnc(NC3CCN(S(C)(=O)=O)CC3)nc21 (centres undefined) + C=CC(=O)N1CCN(c2nc(OCC3CCCN3C)nc3c(F)c(-c4nc(N)cc(C)c4C(F)(F)F)c(Cl)cc23)C(C)C1	186277-243-T-J2-PDC complex spheroids, viability	117
O=C(c1ccc(F)c(F)c1Nc1ccc(I)cc1F)N1CC(O)([C@@H]2CCCCN2)C1 + C=CC(=O)N1CCN(c2nc(OCC3CCCN3C)nc3c(F)c(-c4nc(N)cc(C)c4C(F)(F)F)c(Cl)cc23)C(C)C1	186277-243-T-J2-PDC complex spheroids, viability	82.6
C[C@@H](NC(=O)c1ncnc(N)c1Cl)c1ncc(C(=O)Nc2cc(C(F)(F)F)c(Cl)cn2)s1 + C=CC(=O)N1CCN(c2nc(OCC3CCCN3C)nc3c(F)c(-c4nc(N)cc(C)c4C(F)(F)F)c(Cl)cc23)C(C)C1	186277-243-T-J2-PDC complex spheroids, viability	104
Nc1ccn(C2OC(CO)C(O)C2(F)F)c(=O)n1 (centres undefined) + C#Cc1c(F)ccc2cc(O)cc(-c3ncc4c(N5CC6CCC(C5)N6)nc(OCC56CCCN5CC(F)C6)nc4c3F)c12	186277-243-T-J2-PDC complex spheroids, viability	7.96

viability, T/C reading for Nc1ccn(C2OC(CO)C(O)C2(F)F)c(=O)n1 (centres undefined) + C=CC(=O)N1CCN(c2nc(OCC3CCCN3C)nc3c(F)c(-c4nc(N)cc(C)c4C(F)(F)F)c(Cl)cc23)C(C)C1 : 17.2

viability, T/C reading for O=C(c1ccc(F)c(F)c1Nc1ccc(I)cc1F)N1CC(O)([C@@H]2CCCCN2)C1 + C#Cc1c(F)ccc2cc(O)cc(-c3ncc4c(N5CC6CCC(C5)N6)nc(OCC56CCCN5CC(F)C6)nc4c3F)c12 : 8.46

viability, T/C reading for CCC(CC)c1cc(NC2CCC(N)C2)n2nccc2n1 (centres undefined) + C=CC(=O)N1CCN(c2nc(OCC3CCCN3C)nc3c(F)c(-c4nc(N)cc(C)c4C(F)(F)F)c(Cl)cc23)C(C)C1 : 102

viability, T/C reading for CC(C)n1nc(-c2ccc3oc(N)nc3c2)c2c(N)ncnc21 + C#Cc1c(F)ccc2cc(O)cc(-c3ncc4c(N5CC6CCC(C5)N6)nc(OCC56CCCN5CC(F)C6)nc4c3F)c12 : 5.57

viability, T/C reading for C[C@@H](NC(=O)c1ncnc(N)c1Cl)c1ncc(C(=O)Nc2cc(C(F)(F)F)c(Cl)cn2)s1 + C#Cc1c(F)ccc2cc(O)cc(-c3ncc4c(N5CC6CCC(C5)N6)nc(OCC56CCCN5CC(F)C6)nc4c3F)c12 : 20.9
